# tested.target: T1, human IL6R (human, UniProt P08887 20-358, limits assumed)
# T1 construct: Antigen of the Biacore experiments; the construct is not described (biotinylated IL6R from Peprotech was used for the selections)
# T1 sequence (looked up): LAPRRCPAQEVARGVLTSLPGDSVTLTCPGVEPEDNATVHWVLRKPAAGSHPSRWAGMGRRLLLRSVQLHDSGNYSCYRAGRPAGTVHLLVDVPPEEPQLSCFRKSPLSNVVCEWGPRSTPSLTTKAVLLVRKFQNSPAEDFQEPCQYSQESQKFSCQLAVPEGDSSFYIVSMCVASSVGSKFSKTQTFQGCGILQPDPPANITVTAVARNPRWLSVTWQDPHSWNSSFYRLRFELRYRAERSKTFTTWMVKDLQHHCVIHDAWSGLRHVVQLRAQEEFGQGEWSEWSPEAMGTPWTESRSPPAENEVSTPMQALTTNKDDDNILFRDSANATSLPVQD
# assay.method.text: SPR (Biacore), periplasmic extract
recorded.metric: binding result

binder | recorded.metric | measured.result
32C9PMP2_A10 (VHH, name in Kabat numbering, Humanized 32C9 variant) VHH: EVQLVESGGGLVQAGGSLRLSCAASGFTFSDYDIGWVRQAPGKGREGVSGISSSDGNTYYADSVKGRFTISRDNAKNTLYLQMNSLKAEDTAVYYCAREPPDSSWYLDGSPEFFKYWGQGTQVTVSS | binding result | no binding
32C9PMP2_D5 (VHH, name in Kabat numbering, Humanized 32C9 variant) VHH: EVQLVESGGGLVQPGGSLRLSCAASGFTFDDYDIGWVRQAPGKELEGVSGISSSDGNTYYADSVKGRFTISRDNAKNTVYLQMNSLKAEDTAVYYCAREPPDSSWYLDGSPEFFKYWGQGTLVTVSS | binding result | no binding
